- Target of assay: human Plasma Kallikrein (Homo sapiens (Human), UniProt P03952)
- Sequence (P03952 20-638): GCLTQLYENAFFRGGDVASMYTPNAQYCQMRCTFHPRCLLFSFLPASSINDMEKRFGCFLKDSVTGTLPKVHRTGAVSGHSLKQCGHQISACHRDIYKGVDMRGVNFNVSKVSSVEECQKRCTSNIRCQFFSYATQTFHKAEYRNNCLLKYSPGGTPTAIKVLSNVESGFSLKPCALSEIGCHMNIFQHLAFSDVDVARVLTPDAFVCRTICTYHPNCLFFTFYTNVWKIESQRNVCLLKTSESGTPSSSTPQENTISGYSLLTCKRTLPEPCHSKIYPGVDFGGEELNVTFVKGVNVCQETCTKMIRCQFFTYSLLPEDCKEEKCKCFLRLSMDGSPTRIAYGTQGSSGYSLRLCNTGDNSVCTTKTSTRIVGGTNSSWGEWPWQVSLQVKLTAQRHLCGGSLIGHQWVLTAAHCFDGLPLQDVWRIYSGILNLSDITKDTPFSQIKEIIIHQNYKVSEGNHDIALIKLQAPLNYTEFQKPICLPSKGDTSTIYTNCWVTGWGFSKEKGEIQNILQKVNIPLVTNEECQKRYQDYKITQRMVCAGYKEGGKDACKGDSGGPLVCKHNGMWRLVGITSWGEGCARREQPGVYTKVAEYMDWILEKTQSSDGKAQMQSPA
- Procedure details: In vitro enzyme inhibition of human plasma kallikrein (PFR-AMC cleavage)
- Format: biochemical
- Condition description: human plasma kallikrein, Pro-Phe-Arg-AMC substrate, 37° C.; read-out: hPK IC50
pIC50: −log10 of the molar value.
Here, each record is paired with measured pIC50 data.
Measure: pIC50

# Query smiles, Result
records = [
    ("Cc1cnc2c(C#N)cc(Cc3cc(C(=O)NCc4ccc5[nH]cc(Cl)c5c4F)ccn3)cc2c1", "> 7.00"),
    ("NC(=O)c1ccc2cc(Cc3cc(C(=O)NCc4cc5c(Cl)c[nH]c5cc4F)ccn3)ccc2n1", "6.00 to 7.00"),
    ("Cc1ccc2ncc(Cc3cc(C(=O)NCc4c(C)cc(N)nc4C)ccn3)cc2c1", "> 7.00"),
    ("Nc1nccc2cc(CNC(=O)c3ccnc(Cc4cnc5ccc(F)cc5c4)c3)ccc12", "> 7.00"),
]
